Molecular target: human IL-6 (as added in the B9 and 7TD1 bioassays) (human, UniProt P05231 30-212)
Assay: cell-based or functional assay
property_label: IC50, 7TD1 proliferation assay, exp 29.06 (pM)

binder	measured
129E11 (germlined variant of 68F2), full-length IgG1 (antibody, V domains shown) VH: EVQLQESGPGLVKPSQTLSLTCTVSGGSITSRYYAWSWIRQPPGKGLEWMGVIDYDGDTYYSPSLKSRVTISVDTSKNQFSLKLSSVTAEDTAVYYCARDPDVVTGFHYDYWGQGTLVTVSS VL: QSALTQPPLVSGSPGQTVTISCAGANNDIGTYAYVSWYQQLPGTAPKLLIYKVTTRASGVPDRFSGSKSGNTASLTISGLQSEDEADYYCASYRNFNNAVFGTGTKLTVL	0.857
